tested on: human Factor 11 mRNA; assay: Antisense inhibition of human Factor 11 in HepG2 cells, lipofectin, 75 nM (Example 1); format: cell-based; conditions: 75 nM antisense oligonucleotide, ~24 h, relative to untreated control cells, gapmers targeted to SEQ ID NO: 1
Strand notation (5' to 3'): a small letter for the sugar, then the base; units joined by * are phosphorothioate-linked, units joined directly phosphodiester-linked; [ ] holds rarer units or linkages, { } end groups; capitals alone tell only the bases. e = 2'-O-(2-methoxyethyl) (MOE); [5mC] = 5-methylcytosine; d = 2'-deoxy (DNA)
Short version: % inhibition at least 40% is True, less is False.

substance="412225 (antisense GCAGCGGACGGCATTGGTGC; 5-10-5 MOE gapmer, further chemistry not given here) [compound 412225]" system="human Factor 11 mRNA" label=True

Entry 412260 (antisense e[5mC]*eA*e[5mC]*eA*eA*dA*dT*d[5mC]*dA*dT*dT*dT*dT*dT*d[5mC]*eA*eG*eG*eA*eA) [compound 412260] : is its % inhibition no less than 40%?
False
